These data points were gathered from patent US8778621B2.

tested on: LNCaP prostate cancer cells; experiment: Xcelligence assay, real time electrical impedance measurement of cell growth; format: cell-based; details: Homo sapiens, real-time growth, concluded from 50% inhibition at 10 uM, read-out: IC50 of cell proliferation inhibition
pIC50: −log10 of the molar value.
measured-attribute: pIC50

{"columns": ["compound", "test-system", "measured"],
 "data": [
  ["COc1ccc(C2CNC(=O)C2)cc1OC1CCCC1 (stereo not shown) [Rolipram]", "LNCaP prostate cancer cells", "~5.00"]
]}
